test: Zeta-potential measurement; format: physicochemical; details: zeta-potential of the peptide assemblies; mean; Figure 3A source data
assay_endpoint: Zeta-Potential / mV

Known results for substances:
ILKNLSRSRKIKIQINMWQ | 19.2 mV
KYKYQY | -4.2 mV
KLKLQLL | -4.93 mV
CKIKIQINMW | 18.3 mV
KFKFQF | -11.03 mV
RGDCKFKFQF | 13.87 mV

Looking up `CKFKFQFNMWQ` , I see its Zeta-Potential / mV listed as 17.03 mV

Zeta-Potential / mV reported for this substance `KAKAKAQA` : -9.01 mV

Lab note: measured Zeta-Potential / mV of `RPRGLLLGNLR` was -8.15 mV

Item: `RGDCKIKIQINM` | Zeta-Potential / mV: 11.3 mV

Measured Zeta-Potential / mV, `KIKQIIN` : -11.7 mV

Reported Zeta-Potential / mV ( `CKFKFQFW` ) = 15.2 mV

Zeta-Potential / mV for `KIKIQII` is 5.61 mV

Looking up `KVKVQVVV` , I see its Zeta-Potential / mV listed as 0.15 mV

For this substance ( `KFKFQFNM` ), measured Zeta-Potential / mV is 13.9 mV

substance `RGECKFKFQF` , Zeta-Potential / mV observed: 23.97 mV

// sample `KIKIQIMWNQ` , its Zeta-Potential / mV was 2.96 mV

Kindly note the recorded Zeta-Potential / mV for `CKAKAQA` , which is -8.01 mV

Looking up `CKFKFQF` , I found its Zeta-Potential / mV recorded as 19.73 mV

For this substance ( `QCKIKIQINM` ), measured Zeta-Potential / mV is 11.37 mV

substance `MKIKIQINMWQ` , Zeta-Potential / mV observed: 10.8 mV

---

assay: β-sheet content by ATR-FT-IR; type: physicochemical; conditions: ATR-FT-IR
assay_endpoint: FTIR ß-sheet content/ %
Write the numeric value and append its unit.

Below, 3 substances whose answers are already recorded.
CKFKFQFW [TM72] | 43%
HLHLPLL [CN14] | 49.19%
KFKFQFFF [TG12] | 49.11%

The value of FTIR ß-sheet content/ % measured for the substance KIKQIINM [JGA2] turned out to be 44%

For CKFKQFFNM [CK14] the substance record lists FTIR ß-sheet content/ % as 0%

---

# ThT Cat. per entry
type: physicochemical; settings: Fig S10 panel E

CKIKIQINMWQ | 1 (ThT. Cat is 1, if Rel. ThT >2)
SISISRRI | 0 (ThT-inactive (N-Fold <2))
CKFKFQFNMWQ | 1 (ThT. Cat is 1, if Rel. ThT >2)
RGDKIRGDKI | 0 (ThT-inactive (N-Fold <2))
KIKQIINM | 0 (ThT-inactive (N-Fold <2))

Let's switch to this substance now.
Sample `CKAKAQANM` ; ThT Cat. observed: 0 (ThT-inactive (N-Fold <2))

---

tested on: TZM-bl cells; format: cell-based; conditions: CellTiter-Glo, peptide 6.5 µM, mean of n = 3 replicates
Flag rule - viability 6.5 µM less than 100 flags 1; the remaining entries get 0.

Consider the worked cases shown below.
QCKAKAQANMWQ [CK22] | 1
CHLHLQL [CN9] | 1
HHHHKIKIQINMYYYY [TM16] | 1
KAKAQA [JJA2 / TM153] | 0
CEIEIQINMWQ [TM143] | 1

Please indicate whether the reported viability 6.5 µM of CSISIQI [TM141] is strictly below 100.
1

---

format: physicochemical; set-up: key: 1 = fibrils present; 0 non-fibrillar structures; conditions: Fig S10 panel E
assay_endpoint: Fibril
Output: the number by itself.

Record excerpt, results attached:
EIEIQINM | 1
KAKAQA | 0
KFKFKFQF | 1
QCKFKFQFNM | 1
EIEIQINMWQ | 0
KFKFQFNMWQ | 1
RGECKFKFQF | 1
QCKFKFQFNMWQ | 1
QCKIKQIINMWQ [reference compound] | 1
CETMYDKILKNLSRSR | 0

Record `HGEHGEHGE` , field Fibril: 0

Value of Fibril reported for the substance `SISISRRI` is 0

Entry under test: `CRFRVPF` . Its Fibril was 0

---

assay: Turbidity, derived count rate of scattered light; assay type: physicochemical; details: derived count rate of scattered light
assay_endpoint: Zeta Count Rate / kcps

# annotated cases, reported Zeta Count Rate / kcps shown
HHHHKAKAKAKAWWWW [TM8] | 658.9 kcps
CKFKQFF [CK15] | 2.567 kcps
QCKFKQFFNMWQ [CK10] | 18911.36667 kcps
KIKIQII [TG1 / (KM4)] | 1039 kcps
RGEKIKIQINM [CN18] | 594.6 kcps
HHHHKIKIKIKIYYYY [TM6] | 12792.53333 kcps
RLRLTLC [CN13] | 125.6 kcps
CKIKQII [MG4a] | 74.6 kcps

Sure, the documented Zeta Count Rate / kcps for KFKFKFQF [TG18] is 1036 kcps

Record summary for KIKIQIW [TM69] : reported Zeta Count Rate / kcps = 144.9 kcps

Record RIRIQIC [PS07] . Reported Zeta Count Rate / kcps: 191.1 kcps

// field: Zeta Count Rate / kcps; key: KAKQAANMWQ [JG6] ; value = 690.5 kcps

HIHIQIC [CN12] has a reported Zeta Count Rate / kcps of 260.6 kcps

For reference, reported Zeta Count Rate / kcps for KAKAKAQA [TG15] stands at 76.93 kcps

Per the records, this substance ( RGDKIKIQINM [MG8a / CN17] ) has Zeta Count Rate / kcps equal to 57.2 kcps

Entry KIKQII [msis21] , Zeta Count Rate / kcps reported as 122 kcps

---

assay: Zeta-potential measurement; assay type: physicochemical; settings: zeta potential of peptide; Fig S15 source data
If the reported Zeta-pot. / mV equals or exceeds 7 mV, assign Fulfilled. If not, assign Not fulfilled.

Here are 2 substances together with their reported answers.
KVKVQVV [TG2] | Not fulfilled
QCKFKQFFNMWQ [CK10] | Fulfilled

Quick check: does KVKVQVVV [TG8] have Zeta-pot. / mV greater than or equal to 7 mV?
Not fulfilled

Check the entry KAKAQANM [TM152] : does Zeta-pot. / mV equal or exceed 7 mV?
Not fulfilled

Quick check, Zeta-pot. / mV >= 7 mV? KIKIQINMWWWQ [VH12]
Fulfilled

Answer whether Zeta-pot. / mV of KFKFQFNMWQ [JG4] is greater than or equal to 7 mV.
Fulfilled

Given RGDKIKIQINMWQ [MG9a] , state whether its Zeta-pot. / mV is at least 7 mV.
Not fulfilled

# check: Zeta-pot. / mV of QCKFKFQF [CK9] is greater than or equal to 7 mV
Fulfilled

Exam item: decide whether the reported Zeta-pot. / mV for KAKAQANMWQ [JG3] is at least 7 mV.
Not fulfilled

Given the entry RGDKIRGDKI [CN4] , answer whether its Zeta-pot. / mV meets or surpasses 7 mV.
Not fulfilled

Dear colleague, could you confirm whether QCKFKQFFNM [CK11] has Zeta-pot. / mV at or above 7 mV?
Fulfilled

Hi team, for KFKFQF [JJA6] , is the recorded Zeta-pot. / mV at or above 7 mV?
Not fulfilled

Does the substance CKFKFQFNMWQ [BL2] have recorded Zeta-pot. / mV that is 7 mV or more?
Fulfilled

Hello, I need to know if CRFRFQF [CN10] has measured Zeta-pot. / mV not below 7 mV. Thanks!
Not fulfilled

---

test: Turbidity, derived count rate of scattered light; format: physicochemical; details: turbidity, Log10 of derived count rate of scattered light; Figure 3A source data
# Log10 Count Rate per entry
API doc: respond with a numeric literal and nothing else, no unit.

Known Log10 Count Rate results, listed for orientation:
NMWQKFKFQF | 4.148
KFKQFFNMWQ | 2.375
KVKGVGK | 1.709
TKTLTKTL | 2.711
RGDKIRGDKI | 2.456

// Log10 Count Rate value for `KFKFQFFF` : 3.483

Summary for this substance, `HHHHKIKIKIKIYYYY` : Log10 Count Rate is 4.107

Lab note: measured Log10 Count Rate of `KFKFQFNMW` was 2.785

GET /value?item= `KIKQIINMWQ` &field=Log10 Count Rate returns 2.789

The measured Log10 Count Rate associated with `KIKIQIC` reads 2.992

`RGDKIKIQIC` has a reported Log10 Count Rate of 3.876

---

assay: β-sheet content by ATR-FT-IR; format: physicochemical; settings: ATR-FT-IR of lyophilised 1 mg/mL PNF solution, peak integral ratio 1625-1635 cm-1, measured once
The threshold is inclusive: ß-sheet / % of exactly 40% counts as YES; values below receive NO.

QCKAKAQANMWQ | NO

Does the substance `KAKAQANM` have recorded ß-sheet / % that is 40% or more?
NO

Determine whether measured ß-sheet / % meets or exceeds 40% for `QCKAKAQANM`
NO

Decide: ß-sheet / % of `KFKFQFN` >= 40%?
NO

Check the entry `KAKAQANMWQ` : does ß-sheet / % equal or exceed 40%?
YES

Tell me whether ß-sheet / % is at least 40% here: `CKAKAQANM`
NO

Hi, just wondering whether `KIKIQINMWQRGD` shows ß-sheet / % of 40% or higher.
YES
